Assay: Phase 1 single ascending dose trial of intravenous HBI-3000: pharmacokinetics
Assay type: in vivo
Conditions: human, plasma, iv, 20 mg, 20 mg single iv infusion over 30 min, N=6, as used for ΔΔECG model; read-out: Cmax (Table 2)
Structures can show the parent of a compound that is named as a salt.
recorded-metric: Cmax (ng/mL)
One number for each entry, in ng/mL.

get_value(item= COc1ccc(S(=O)(=O)NCc2cc(CN3CCCC3)c(O)c(CN3CCCC3)c2)cc1 [HBI-3000, sulcardine sulfate] , readout=Cmax) returns 135

---

Assay: Phase 1 single ascending dose trial of intravenous HBI-3000: pharmacokinetics
Assay type: in vivo
Details: human, plasma, intravenous; 350 mg dose
Structures can show the parent of a compound that is named as a salt.
recorded-metric: AUC(0-inf) (ng·h/mL)
Numbers only, in ng·h/mL.

get_value(item= COc1ccc(S(=O)(=O)NCc2cc(CN3CCCC3)c(O)c(CN3CCCC3)c2)cc1 [HBI-3000, sulcardine sulfate] , readout=AUC(0-inf)) returns 3720
